The reported measurements were obtained from patent US11370774B2.

Molecular target: Factor D (Homo sapiens (Human))
Sequence (P00746 26-253): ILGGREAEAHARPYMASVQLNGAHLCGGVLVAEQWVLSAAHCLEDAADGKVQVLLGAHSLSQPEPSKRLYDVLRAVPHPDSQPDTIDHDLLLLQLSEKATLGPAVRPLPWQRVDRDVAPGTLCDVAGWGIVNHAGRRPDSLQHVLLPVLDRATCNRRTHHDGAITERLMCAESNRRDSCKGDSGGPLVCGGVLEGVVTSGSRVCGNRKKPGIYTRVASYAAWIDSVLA
Test: Factor D esterolytic assay (Z-Lys-SBzl substrate, DTNB, 405 nm)
Assay type: biochemical
Settings: Z-Lys-SBzl 1.29 mM, pH 7.5, 10% DMSO, tested a minimum of three times, read-out: Measured Ki (IC50) Value for Compounds: IC50
pIC50: −log10 of the molar value.
Measured pIC50 of individual entries

- compound: "Nc1n[nH]c2c(-c3cc(COc4ccccc4CC(=O)O)cc4ccoc34)cccc12 [Compound 176c]"
  pIC50: "5.00 to 6.00"

Lookup result for NCc1cccc(-c2cc(COc3ccccc3CC(=O)O)cc3ccsc23)c1 [Compound 214f] ; measured pIC50: > 6.00

The compound listed as NCCNCc1cc2cc(COc3ccccc3CC(=O)O)cc(-c3cccc(CN)c3)c2o1 [Compound 196d] shows pIC50 equal to > 6.00

pIC50 in this record for NCc1cccc(-c2cc(COc3ccccc3CC(=O)O)cc3cc(C4CCCC4)oc23)c1 [Compound 82f] : > 6.00

----------
pIC50: −log10 of the molar value.
Recorded pIC50 values (Factor D (Homo sapiens (Human))) are given below.

Consider the reported pIC50 for these compounds:
- compound: "Cn1ccc2cc(COc3ccccc3CC(=O)O)cc(-c3cccc(CN)c3)c21 [Compound 218f]"
  target-of-assay: "Factor D (Homo sapiens (Human))"
  value-reported: "< 5.00"
- compound: "CC(C)c1ccc(CC(=O)O)c(OCc2cc(-c3cccc(CN)c3)c3occc3c2)c1 [Compound 312b]"
  target-of-assay: "Factor D (Homo sapiens (Human))"
  value-reported: "> 6.00"
- compound: "COc1ccc(OCc2cc(-c3cccc(CN)c3F)c3ccn(C(C)C)c3c2)c(CC(=O)O)c1 [Compound 475g]"
  target-of-assay: "Factor D (Homo sapiens (Human))"
  value-reported: "> 6.00"
- compound: "NCc1cccc(-c2cc(OC[C@@H]3CCC[C@H]3C(=O)NCc3cccc(Cl)c3F)cc3ccoc23)c1 (relative stereo) [Compound 340e]"
  target-of-assay: "Factor D (Homo sapiens (Human))"
  value-reported: "5.00 to 6.00"
- compound: "Cc1ccc(CC(=O)O)c(OCc2cc(-c3cccc(CN)c3F)c3ccn(C)c3c2)c1 [Compound 359b]"
  target-of-assay: "Factor D (Homo sapiens (Human))"
  value-reported: "> 6.00"
- compound: "Cc1cccc(CC(=O)O)c1OCc1cc(-c2cccc(CN)c2)c2occc2c1 [Compound 274g]"
  target-of-assay: "Factor D (Homo sapiens (Human))"
  value-reported: "> 6.00"
- compound: "Cn1cc2c(-c3cccc(CN)c3F)cc(COc3ccccc3CC(=O)O)cc2n1 [Compound 129e]"
  target-of-assay: "Factor D (Homo sapiens (Human))"
  value-reported: "> 6.00"
- compound: "COc1ccc(CC(=O)O)c(OCc2cc(-c3cccc(CN)c3F)c3occc3c2)c1 [Compound 465b]"
  target-of-assay: "Factor D (Homo sapiens (Human))"
  value-reported: "> 6.00"
- compound: "CC(=O)c1ccc(CC(=O)O)c(OCc2cc(-c3ccnc(CN)c3F)c3occc3c2)c1 [Compound 505d]"
  target-of-assay: "Factor D (Homo sapiens (Human))"
  value-reported: "> 6.00"
- compound: "Cc1cc(CC(=O)O)c(OCc2cc(-c3cccc(CN)c3)c3occc3c2)cc1C [Compound 276f]"
  target-of-assay: "Factor D (Homo sapiens (Human))"
  value-reported: "> 6.00"

For this compound ( Cc1ccc(S(=O)(=O)n2ccc3c(-c4cccc(CN)c4F)cc(COc4ccccc4CC(=O)O)cc32)cc1 [Compound 57c] ), measured pIC50 is > 6.00

Reported pIC50 for C[C@@H](N)c1cccc(-c2nc(C(=O)Nc3ccccc3CC(=O)O)c3cccn3n2)c1 was > 6.00

Recorded result, NCc1cccc(-c2cc(COc3ccccc3CC(=O)O)cc3nccn23)c1 [Compound 107f] , pIC50: > 6.00

Measured pIC50 of CC(C)(C)c1cc(OCc2cc(-c3cccc(CN)c3)c3occc3c2)c(CC(=O)O)cc1Cl [Compound 308h] : > 6.00

Summary for this compound, NCc1cccc(-c2nc(C(=O)Nc3ccccc3CC(=O)O)nc3c2COC3)c1 [Compound 48h] : pIC50 is 5.00 to 6.00

Sample NCc1cccc(-c2cc(C(=O)N[C@@H]3CCC[C@H]3C(=O)NCc3cccc(Cl)c3F)cc3ccoc23)c1 (relative stereo) [Compound 376e] ; pIC50 observed: > 6.00
